Assign IC50 at 48 h to each entry below.
- ASSAY_PROCEDURE: MTT cytotoxicity assay, Hs888Lu
- Type: cell-based, human
- CONDITION_INFO: human, Hs888Lu lung cells; Hs888Lu normal lung, 48 h
Entry rule: numbers only, all in µM.

Please look up its IC50 at 48 h: COC(=O)C1=CO[C@@H]2O[C@H]3/C(=C\c4ccc(O)c(OC)c4)C(=O)O[C@]34C=C[C@H]1[C@H]24 [molucidin] 9.29

Please look up its IC50 at 48 h: CCOC(=O)C1=CO[C@@H]2O[C@H]3/C(=C\c4ccc(O)c(OC)c4)C(=O)O[C@]34C=C[C@H]1[C@H]24 [ML-F52] 8.89

---

- Tested on: GUTat 3.1 strain of the bloodstream form of T. brucei brucei
- ASSAY_PROCEDURE: alamarBlue in vitro viability test for trypanosome parasites
- Assay type: cell-based
- CONDITION_INFO: Trypanosoma brucei, 48 h of incubation, read-out: IC50, antitrypanosomal activity
EXPERIMENTAL_ENDPOINT: IC50 (µM)
Entry rule: numbers only, all in µM.

Please look up its IC50: COc1c2cc(C=O)ccc2c(OC)c2c(O)cccc12 518

Please look up its IC50: COC(=O)C1=CO[C@@H]2O[C@H]3/C(=C\c4ccc(O)c(OC)c4)C(=O)O[C@]34C=C[C@H]1[C@H]24 1.27

Please look up its IC50: CCOC(=O)C1=CO[C@@H]2O[C@H]3/C(=C\c4ccc(O)c(OC)c4)C(=O)O[C@]34C=C[C@H]1[C@H]24 0.43

Please look up its IC50: CC1(C)CC[C@]2(C(=O)O)CC[C@]3(C)C(=CC[C@@H]4[C@@]5(C)CC[C@H](O)C(C)(C)[C@@H]5CC[C@]43C)[C@@H]2C1 13.7

Please look up its IC50: C[C@H]1[C@H](C)CC[C@]2(C(=O)O)CC[C@]3(C)C(=CC[C@@H]4[C@@]5(C)CC[C@H](O)C(C)(C)[C@@H]5CC[C@]43C)[C@H]12 15.4

Please look up its IC50: COc1cc(/C=C2/C(=O)O[C@]34C=C[C@@H]5C(C(=O)O)=CO[C@H](O[C@@H]23)[C@@H]54)ccc1O 3.75

---

- ASSAY_PROCEDURE: MTT cytotoxicity assay, HF-19
- Assay type: cell-based, human
- CONDITION_INFO: human, HF-19 lung fibroblast cells; HF-19 normal lung fibroblast, 48 h
EXPERIMENTAL_ENDPOINT: IC50 at 48 h

Please look up its IC50 at 48 h: COC(=O)C1=CO[C@@H]2O[C@H]3/C(=C\c4ccc(O)c(OC)c4)C(=O)O[C@]34C=C[C@H]1[C@H]24 [molucidin] 14.2 µM

Please look up its IC50 at 48 h: CCOC(=O)C1=CO[C@@H]2O[C@H]3/C(=C\c4ccc(O)c(OC)c4)C(=O)O[C@]34C=C[C@H]1[C@H]24 [ML-F52] 10.9 µM

Please look up its IC50 at 48 h: COc1cc(/C=C2/C(=O)O[C@]34C=C[C@@H]5C(C(=O)O)=CO[C@H](O[C@@H]23)[C@@H]54)ccc1O [ML-2-3] > 50 µM

---

- ASSAY_PROCEDURE: MTT cytotoxicity assay, Chang Liver
- Type: cell-based, human
- CONDITION_INFO: human, Chang Liver cells; Chang liver normal liver, 48 h
EXPERIMENTAL_ENDPOINT: IC50 at 48 h (µM)
Entry rule: numbers only, all in µM.

Please look up its IC50 at 48 h: COC(=O)C1=CO[C@@H]2O[C@H]3/C(=C\c4ccc(O)c(OC)c4)C(=O)O[C@]34C=C[C@H]1[C@H]24 9.34

Please look up its IC50 at 48 h: CCOC(=O)C1=CO[C@@H]2O[C@H]3/C(=C\c4ccc(O)c(OC)c4)C(=O)O[C@]34C=C[C@H]1[C@H]24 18.1

---

- ASSAY_PROCEDURE: MTT cytotoxicity assay, NB1RGB
- Type: cell-based, human
- CONDITION_INFO: human, NB1RGB skin fibroblast cells; NB1RGB normal skin fibroblast, 48 h
- Experimental: The cytotoxicity of the compounds to mammalian cells were determined using four human normal cell lines, namely, NB1RGB (skin fibroblast) and HF-19 (lung fibroblast) obtained from the RIKEN Bio Resource Center Cell Bank (Japan) and Chang Liver and Hs888Lu (lung) obtained from the European Collection of Authenticated Cell Cultures (ECACC). […] Cytotoxicity was determined using a 3-(4,5-dimethylthiazol-2-yl)-2,5-diphenyltetrazolium bromide (MTT) assay. […]
EXPERIMENTAL_ENDPOINT: IC50 at 48 h (µM)
Entry rule: numbers only, all in µM.

Please look up its IC50 at 48 h: CCOC(=O)C1=CO[C@@H]2O[C@H]3/C(=C\c4ccc(O)c(OC)c4)C(=O)O[C@]34C=C[C@H]1[C@H]24 [ML-F52] 4.74

Please look up its IC50 at 48 h: COC(=O)C1=CO[C@@H]2O[C@H]3/C(=C\c4ccc(O)c(OC)c4)C(=O)O[C@]34C=C[C@H]1[C@H]24 [molucidin] 7.11
